Let's go through some Average cell viability, BEAS-2B measurements on human bronchial epithelial cells (BEAS-2B) together.
Ends that are not written are not given here.
Could you keep your reply to the number by itself?

These recorded examples may help you get a feel for the data.
[
  {
    "substance": "LQPDAGK [TaPep6]",
    "Average cell viability, BEAS-2B": 102.76
  },
  {
    "substance": "PTELESD [TaPep41]",
    "Average cell viability, BEAS-2B": 110.80
  },
  {
    "substance": "FEGDQDA [TaPep18]",
    "Average cell viability, BEAS-2B": 104.49
  },
  {
    "substance": "SVLEFS [TaPep52]",
    "Average cell viability, BEAS-2B": 105.65
  },
  {
    "substance": "STGTIR [TaPep51]",
    "Average cell viability, BEAS-2B": 98.34
  }
]

Please give the documented Average cell viability, BEAS-2B of VAEDLL [TaPep8]
103.39

Please give the documented Average cell viability, BEAS-2B of LQPSLEH [TaPep59]
100.60

Please give the documented Average cell viability, BEAS-2B of FTEELE [TaPep32]
106.88

Please give the documented Average cell viability, BEAS-2B of TDPELV [TaPep60]
110.77

Please give the documented Average cell viability, BEAS-2B of SLEYEFK [TaPep38]
103.09

----------
Let's go through some Average cell viability, HEK293T measurements on human embryonic kidney cells (HEK293T) together.
Ends that are not written are not given here.
Could you keep your reply to the number by itself?

These recorded examples may help you get a feel for the data.
[
  {
    "substance": "DQKVLA [TaPep3]",
    "parameter measured": "Average cell viability, HEK293T",
    "numeric value": 94.20
  },
  {
    "substance": "APEELDA [TaPep36]",
    "parameter measured": "Average cell viability, HEK293T",
    "numeric value": 103.41
  },
  {
    "substance": "LGDDLVK [TaPep19]",
    "parameter measured": "Average cell viability, HEK293T",
    "numeric value": 106.88
  },
  {
    "substance": "AQSSLS [TaPep40]",
    "parameter measured": "Average cell viability, HEK293T",
    "numeric value": 100.57
  }
]

Send back human embryonic kidney cells (HEK293T) Average cell viability, HEK293T of DFKEELPK [TaPep42] only.
100.35

Send back human embryonic kidney cells (HEK293T) Average cell viability, HEK293T of YDGTPLN [TaPep11] only.
102.37

Send back human embryonic kidney cells (HEK293T) Average cell viability, HEK293T of YAGNAP [TaPep10] only.
99.40

Send back human embryonic kidney cells (HEK293T) Average cell viability, HEK293T of EEVPITD [TaPep46] only.
100.85

Send back human embryonic kidney cells (HEK293T) Average cell viability, HEK293T of VARLEA [TaPep9] only.
105.62

----------
Assay: Electronic tongue analysis (Taste-Sensing System SA 402B)
Design: unit not given here
Details: sensor GL1, peptide 1 mg/mL, reference solution 30 mM KCl + 0.3 mM tartaric acid as baseline, detection threshold 0, room temperature, measured five times, first measurement excluded
Ends that are not written are not given here.
Recorded measurements of Sweet, one per entry
Could you keep your reply to the number by itself?

These recorded examples may help you get a feel for the data.
[
  {
    "substance": "AQSSLS [TaPep40]",
    "numeric value": -5.29
  },
  {
    "substance": "YQAENKH [TaPep14]",
    "numeric value": -4.10
  },
  {
    "substance": "YKYHES [TaPep13]",
    "numeric value": -4.65
  },
  {
    "substance": "YAGNAP [TaPep10]",
    "numeric value": -4.53
  },
  {
    "substance": "EPKVLV [TaPep54]",
    "numeric value": -6.29
  }
]

Please give the documented Sweet of DQEPVE [TaPep44]
-11.10

Please give the documented Sweet of HGGDDLG [TaPep28]
-6.08

Please give the documented Sweet of AEDNSL [TaPep43]
-3.45

Please give the documented Sweet of EFPEQN [TaPep17]
-5.15

Please give the documented Sweet of LQPDAGK [TaPep6]
-5.48

Please give the documented Sweet of EQGEQN [TaPep15]
-3.92

Please give the documented Sweet of VAEDLL [TaPep8]
-4.65

Please give the documented Sweet of TQEVVN [TaPep25]
-3.53
